Data origin: patent US11046710B2

# TGT: human TNAP (Homo sapiens (Human), UniProt P05186)
# Sequence (P05186 18-524): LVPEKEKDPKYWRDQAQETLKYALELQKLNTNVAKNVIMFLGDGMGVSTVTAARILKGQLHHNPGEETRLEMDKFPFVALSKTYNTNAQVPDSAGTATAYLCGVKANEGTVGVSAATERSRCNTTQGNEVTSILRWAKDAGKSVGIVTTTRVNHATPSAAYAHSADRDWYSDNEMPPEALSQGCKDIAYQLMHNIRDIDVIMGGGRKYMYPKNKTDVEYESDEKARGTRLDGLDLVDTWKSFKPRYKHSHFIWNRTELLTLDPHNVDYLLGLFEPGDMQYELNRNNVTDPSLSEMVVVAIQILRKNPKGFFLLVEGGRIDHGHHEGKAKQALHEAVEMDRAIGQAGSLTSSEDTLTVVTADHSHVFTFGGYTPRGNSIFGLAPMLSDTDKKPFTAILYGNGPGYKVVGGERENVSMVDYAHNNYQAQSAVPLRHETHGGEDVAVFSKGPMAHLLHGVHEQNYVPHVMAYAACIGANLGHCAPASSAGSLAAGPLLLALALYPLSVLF
# PROCEDURE TEXT: Inhibitory test of TNAP activity (pNPP substrate, p-nitrophenol production)
# TEST SETTINGS: human TNAP from transfected COS1 culture supernatant, 60 minutes at room temperature
RECORDED ENDPOINT: pIC50
Scale note: pIC50 = -log10(concentration in M).

substance_smiles=COCCOc1ccc(F)cc1S(=O)(=O)Nc1cnc2c(c1)-c1ccnn1CCO2 tgt="human TNAP (Homo sapiens (Human), UniProt P05186)" value_reported=7.90
substance_smiles=COc1ccc(Cl)cc1S(=O)(=O)Nc1cnc2c(c1)C(=O)N1C[C@H](O)C[C@H]1CO2 tgt="human TNAP (Homo sapiens (Human), UniProt P05186)" value_reported=8.15
substance_smiles=COc1ccc(Cl)cc1S(=O)(=O)Nc1cnc2c(c1)CN1C(=O)OC[C@H]1CO2 tgt="human TNAP (Homo sapiens (Human), UniProt P05186)" value_reported=8.42
substance_smiles=COc1ccc(Cl)cc1S(=O)(=O)Nc1cnc2c(c1)CN1C(=O)CN(C)C[C@H]1CO2 tgt="human TNAP (Homo sapiens (Human), UniProt P05186)" value_reported=8.74
substance_smiles=COc1ccc(F)cc1S(=O)(=O)Nc1cnc2c(c1)C(=O)N1C[C@H](O)C[C@@H]1CO2 tgt="human TNAP (Homo sapiens (Human), UniProt P05186)" value_reported=8.82

Sure, the documented pIC50 for O=C1c2cc(NS(=O)(=O)c3cc(F)ccc3OC(F)(F)F)cnc2OC[C@H]2C[C@@H](O)CN12 is 8.62

Sure, the documented pIC50 for COc1ccc(Cl)cc1S(=O)(=O)Nc1cnc2c(c1)CN1C(=O)CCC[C@H]1CO2 is 8.85

Sure, the documented pIC50 for COc1ccc(Cl)cc1S(=O)(=O)Nc1cnc2c(c1)CN1C(=O)[C@H](O)C[C@H]1CO2 is 8.37

Sure, the documented pIC50 for O=C1c2cc(NS(=O)(=O)c3cc(Cl)ccc3OC(F)(F)F)cnc2OC[C@H]2C[C@@H](O)CN12 is 8.85

Sure, the documented pIC50 for COc1ccc(Cl)cc1S(=O)(=O)Nc1cnc2c(c1)-n1nccc1CCO2 is 7.53

====

# TGT: human TNAP (Homo sapiens (Human), UniProt P05186)
# PROCEDURE TEXT: Inhibitory test of TNAP activity (pNPP substrate, p-nitrophenol production)
# TEST SETTINGS: human TNAP from transfected COS1 culture supernatant, 60 minutes at room temperature
# Protocol: COS1 cells (DS Pharma Biomedical Co., Ltd.) were transfected with human TNAP (OriGene Technologies, Inc.) using Lipofectamine LTX & Plus reagent (Invitrogen Corp.). On the next day, the medium was replaced with a fresh medium, and the cells were cultured in an incubator for 3 days. […] Then, the absorbance (ABS: 405 nm) was measured using a microplate reader (model plus 384, Molecular Devices, LLC), and the concentration of produced p-nitrophenol was calculated.
RECORDED ENDPOINT: IC50 (nM)
Report the figure in nM without appending any unit label.

Use the examples below as a reference point.
substance_smiles=COc1ncc(Cl)cc1S(=O)(=O)Nc1cnc2c(c1)-c1ccnn1CCO2 value_reported=8.5
substance_smiles=COc1ccc(Cl)cc1S(=O)(=O)Nc1cnc2c(c1)CN1C(=O)COC[C@H]1CO2 value_reported=3.3
substance_smiles=COc1ccc(Cl)cc1S(=O)(=O)Nc1cnc2c(c1)-c1ccnn1[C@@H](C)CO2 value_reported=3.5
substance_smiles=COC(=O)N[C@@H]1C[C@@H]2COc3ncc(NS(=O)(=O)c4cc(Cl)ccc4OC)cc3C(=O)N2C1 value_reported=0.5
substance_smiles=CCOc1ncc(F)cc1S(=O)(=O)Nc1cnc2c(c1)-c1ccnn1CCO2 value_reported=3.6
substance_smiles=CCOc1ncc(Cl)cc1S(=O)(=O)Nc1cnc2c(c1)-c1ccnn1CCO2 value_reported=5.1
substance_smiles=COc1ccc(Cl)cc1S(=O)(=O)Nc1cnc2c(c1)CN1C(=O)CC[C@H]1CO2 value_reported=2.2
substance_smiles=COc1ccc(Cl)cc1S(=O)(=O)Nc1cnc2c(c1)C(=O)N1C[C@@H](O)C[C@@H]1CO2 value_reported=0.9
substance_smiles=COc1ccc(Cl)cc1S(=O)(=O)Nc1cnc2c(c1)-c1ccnn1[C@H](C)CO2 value_reported=6.9
substance_smiles=O=C1c2cc(NS(=O)(=O)c3cc(F)ccc3OC(F)(F)F)cnc2OC[C@H]2C[C@H](O)CN12 value_reported=1.6

Sure, the documented IC50 for COc1ccc(Cl)cc1S(=O)(=O)Nc1cnc2c(c1)-c1nnc(C(C)C)n1CCO2 is 2.8

Sure, the documented IC50 for CNC(=O)O[C@H]1C[C@@H]2COc3ncc(NS(=O)(=O)c4cc(Cl)ccc4OC)cc3C(=O)N2C1 is 0.6
